Just for reference, paper PMC8584989 is where these values come from.

- systemName: CYP2C8 (Homo sapiens)
- Sequence (P10632 1-490): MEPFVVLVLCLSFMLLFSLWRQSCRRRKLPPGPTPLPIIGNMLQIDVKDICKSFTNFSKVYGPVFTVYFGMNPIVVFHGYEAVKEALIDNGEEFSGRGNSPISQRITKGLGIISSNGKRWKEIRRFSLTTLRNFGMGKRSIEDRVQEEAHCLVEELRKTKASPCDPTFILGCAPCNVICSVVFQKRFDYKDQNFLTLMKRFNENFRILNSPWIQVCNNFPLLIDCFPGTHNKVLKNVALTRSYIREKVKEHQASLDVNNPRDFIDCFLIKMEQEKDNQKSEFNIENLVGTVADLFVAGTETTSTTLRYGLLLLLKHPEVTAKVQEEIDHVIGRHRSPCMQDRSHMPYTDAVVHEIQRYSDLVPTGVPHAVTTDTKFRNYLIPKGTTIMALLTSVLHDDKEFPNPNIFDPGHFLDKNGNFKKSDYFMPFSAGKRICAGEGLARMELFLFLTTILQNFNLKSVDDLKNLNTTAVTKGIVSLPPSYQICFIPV
- assayDetails: Vivid CYP450 Screening Kit, recombinant CYP2C8
- runParameters: recombinant enzyme; read-out: CYP2C8 inhibition IC50
pIC50: −log10 of the molar value.
endpointLabel: pIC50

[[record]]
compound = "CN1CCC(COc2cnc(-c3cccc(Cn4nc(-c5cccc(C#N)c5)ccc4=O)c3)nc2)CC1 [tepotinib, Tepotinib]"
valueobserved = 4.69

